Each entry below lists one item and its recorded Binding of serum 62 to looped/cyclic peptides of protein N of SARS-CoV Urbani value.
# Tested on: antibodies in sera from SARS patients (sera 1a, 1b, 2, 6, 37, 62, London, SARS-yellow, SARS-green)
# Format: binding, human
# Set-up: unit not given here

# annotated cases, reported Binding of serum 62 to looped/cyclic peptides of protein N of SARS-CoV Urbani shown
IAQFAPSASAFFGMS; 0.6
ASAFFGMSRIGMEVT; 0.4
LLLLDRLNQLESKVS; 0.2
IVWVATEGALNTPKD; 0.3
AFGRRGPEQTQGNFG; 0.3

Item under review: `YFYYLGTGPEASLPY` . Reported Binding of serum 62 to looped/cyclic peptides of protein N of SARS-CoV Urbani?
0.7

Return reported Binding of serum 62 to looped/cyclic peptides of protein N of SARS-CoV Urbani; argument: `RQGTDYKHWPQIAQF`
0.9

What value of Binding of serum 62 to looped/cyclic peptides of protein N of SARS-CoV Urbani has been recorded for this entry: `SPRWYFYYLGTGPEA`
1.1

Which Binding of serum 62 to looped/cyclic peptides of protein N of SARS-CoV Urbani is reported for this sequence? `NSRNSTPGSSRGNSP`
0.5

Hello, the source for this data is patent US20070128217A1, in case you need it.
